# measured on: D4R (Homo sapiens, UniProt P21917)
# Sequence (P21917 whole entry): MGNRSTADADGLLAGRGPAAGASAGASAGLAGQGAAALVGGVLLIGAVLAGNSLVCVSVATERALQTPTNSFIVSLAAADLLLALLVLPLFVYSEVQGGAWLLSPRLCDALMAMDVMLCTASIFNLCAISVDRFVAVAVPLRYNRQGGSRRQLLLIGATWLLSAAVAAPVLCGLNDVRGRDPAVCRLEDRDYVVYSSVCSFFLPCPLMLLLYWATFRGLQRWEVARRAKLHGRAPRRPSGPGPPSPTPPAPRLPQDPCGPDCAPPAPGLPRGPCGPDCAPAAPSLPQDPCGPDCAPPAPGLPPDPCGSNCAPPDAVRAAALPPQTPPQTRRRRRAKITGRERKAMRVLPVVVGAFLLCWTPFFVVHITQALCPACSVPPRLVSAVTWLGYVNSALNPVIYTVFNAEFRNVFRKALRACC
# method summary: D4 β-arrestin recruitment assay (DiscoverX PathHunter, CHO-K1 cells)
# Assay type: cell-based
# Parameters: inferred from the same PathHunter system described for D1R and D5R; host or cells: CHO-K1
# measurement context: Table 7; 50 μM compound
Catalogue of Dopamine D4-β-arrestin Assay: DA + 50 μM PAM, Fold Change EC50 values
Hey, just send me the number, nothing else.

# annotated cases, reported Dopamine D4-β-arrestin Assay: DA + 50 μM PAM, Fold Change EC50 shown
CCCc1nc2c(c(=O)c3ccccc3n2C)c(=O)n1C1CCCCCC1 [R1=Cycloheptyl, R2=n-Propyl, R3=H, X=NMe] = 0.8
Cn1c2ccccc2c(=O)c2c(=O)n(-c3ccccc3)c(-c3ccc(C(C)(C)C)cc3)nc21 [R1=Ph, R2=4-t-BuPh, R3=H, X=NMe] = 0.8

Field Dopamine D4-β-arrestin Assay: DA + 50 μM PAM, Fold Change EC50 (entry CCCc1nc2c(c(=O)c3ccccc3n2C)c(=O)n1-c1cc(C)cc(C)c1 [R1=3,5-diMePh, R2=n-Propyl, R3=H, X=NMe] ) reads 0.95

The compound listed as Cn1c2ccccc2c(=O)c2c(=O)n(Cc3ccccc3)c(-c3ccc(F)cc3)nc21 [R1=Bn, R2=4-FPh, R3=H, X=NMe] has a reported Dopamine D4-β-arrestin Assay: DA + 50 μM PAM, Fold Change EC50 of 1.24

Form: compound = COc1ccc2c(=O)c3c(=O)n(-c4ccccc4)c(-c4ccc(C)cc4)nc3oc2c1 [R1=Ph, R2=4-MePh, R3=MeO, X=O] ; Dopamine D4-β-arrestin Assay: DA + 50 μM PAM, Fold Change EC50 = 0.99

Looking up CC(C)Cn1c(-c2ccco2)nc2c(c(=O)c3ccccc3n2C)c1=O [R1=i-Bu, R2=2-furyl, R3=H, X=NMe] , I found its Dopamine D4-β-arrestin Assay: DA + 50 μM PAM, Fold Change EC50 recorded as 1.7

Documented Dopamine D4-β-arrestin Assay: DA + 50 μM PAM, Fold Change EC50 of CC(C)c1nc2c(c(=O)c3ccccc3n2C)c(=O)n1-c1ccc(F)cc1 [R1=4-FPh, R2=i-Propyl, R3=H, X=NMe] : 1.76

Per the record, `Cn1c2ccccc2c(=O)c2c(=O)n(C3CCCCCC3)c(C3CCCCC3)nc21` has Dopamine D4-β-arrestin Assay: DA + 50 μM PAM, Fold Change EC50 of 0.95

Record Cn1c2ccccc2c(=O)c2c(=O)n(-c3ccccc3)c(C3CCCCC3)nc21 [Compound 1] , field Dopamine D4-β-arrestin Assay: DA + 50 μM PAM, Fold Change EC50: 1.06

Lab book: Dopamine D4-β-arrestin Assay: DA + 50 μM PAM, Fold Change EC50 of CCCCCc1nc2c(c(=O)c3ccccc3n2C)c(=O)n1C1CCCCCC1 [R1=Cycloheptyl, R2=n-Pentyl, R3=H, X=NMe] noted as 1.46
